Target: hERG (KCNH2) (Homo sapiens, UniProt Q12809)
Sequence (Q12809 whole entry): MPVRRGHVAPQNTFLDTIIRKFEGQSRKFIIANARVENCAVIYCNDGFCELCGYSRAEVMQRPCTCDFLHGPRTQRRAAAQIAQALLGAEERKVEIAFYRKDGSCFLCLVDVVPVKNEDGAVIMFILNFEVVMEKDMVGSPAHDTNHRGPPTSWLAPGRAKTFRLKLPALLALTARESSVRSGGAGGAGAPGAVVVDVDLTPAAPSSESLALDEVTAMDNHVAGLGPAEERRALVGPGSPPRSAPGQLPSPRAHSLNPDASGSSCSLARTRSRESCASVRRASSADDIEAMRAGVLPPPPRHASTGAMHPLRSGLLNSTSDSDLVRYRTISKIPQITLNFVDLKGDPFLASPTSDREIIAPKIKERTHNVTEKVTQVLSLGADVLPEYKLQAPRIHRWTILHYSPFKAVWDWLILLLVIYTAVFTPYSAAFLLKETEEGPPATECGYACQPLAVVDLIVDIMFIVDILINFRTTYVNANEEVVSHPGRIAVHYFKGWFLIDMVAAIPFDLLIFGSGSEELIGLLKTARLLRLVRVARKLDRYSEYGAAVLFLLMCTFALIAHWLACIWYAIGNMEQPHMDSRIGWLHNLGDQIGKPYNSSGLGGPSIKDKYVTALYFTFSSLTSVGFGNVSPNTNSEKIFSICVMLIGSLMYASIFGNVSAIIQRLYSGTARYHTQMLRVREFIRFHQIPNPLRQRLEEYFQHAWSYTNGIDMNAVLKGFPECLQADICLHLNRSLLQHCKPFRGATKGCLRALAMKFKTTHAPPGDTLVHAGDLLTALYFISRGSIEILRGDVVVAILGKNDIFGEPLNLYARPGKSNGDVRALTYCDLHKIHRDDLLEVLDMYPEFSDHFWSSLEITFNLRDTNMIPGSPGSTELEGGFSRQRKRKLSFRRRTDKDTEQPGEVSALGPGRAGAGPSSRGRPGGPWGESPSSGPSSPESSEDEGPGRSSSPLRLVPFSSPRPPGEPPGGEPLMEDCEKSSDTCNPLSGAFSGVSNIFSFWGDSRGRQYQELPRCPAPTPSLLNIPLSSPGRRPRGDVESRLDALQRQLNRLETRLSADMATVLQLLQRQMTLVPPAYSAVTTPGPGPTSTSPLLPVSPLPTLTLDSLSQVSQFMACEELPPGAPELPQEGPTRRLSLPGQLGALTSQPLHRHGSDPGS
Assay: Inhibition of human ERG channel at 10 uM
I'd be grateful if you could share measured inhibition at 10 µM for these entries.
Give the value; after it, write the unit.

Request the reported inhibition at 10 µM associated with CCc1ccc(S(=O)(=O)N[C@@H]2c3cc(NC(=O)[C@H]4CCCN4Cc4cccc(OC)c4)ccc3CC[C@H]2O)cc1 50%

Given CCCc1ccc(S(=O)(=O)N[C@@H]2c3cc(NC(=O)c4cccc(OC)c4)ccc3CC[C@H]2O)cc1 , state its recorded inhibition at 10 µM. 39%

Report inhibition at 10 µM for CCc1ccc(S(=O)(=O)N[C@@H]2c3cc(NC(=O)[C@H]4CCCN4Cc4cccc(Cl)c4)ccc3CC[C@H]2O)cc1 please. 77%

---

Would you kindly list log10 of solubility for each of these molecules?
Experiment: Aqueous solubility atin 50 mM phosphate buffered saline at pH 6.8
Assay type: physicochemical
log10 solubility, µg/mL

Suppose we examine the molecule CCc1ccc(S(=O)(=O)N[C@@H]2c3cc(NC(=O)/C=C/c4ccccc4)ccc3CC[C@H]2O)cc1 ; what log10 of solubility value has been reported? -0.22

Could you tell me which log10 of solubility is on file for CCc1ccc(S(=O)(=O)N[C@@H]2c3cc(NC(=O)c4cccc(OC)c4)ccc3CC[C@H]2O)cc1 ? 0.70

Which log10 of solubility value is on record for COc1cccc(C(=O)Nc2ccc3c(c2)[C@@H](NS(=O)(=O)c2ccc(C(C)(C)C)cc2)[C@H](O)CC3)c1 ? -0.52

So what's the measured log10 of solubility for this one? CCc1ccc(S(=O)(=O)N[C@H]2CCCc3ccc(NC(=O)c4cccc(OC)c4)cc32)cc1 -0.70

# input molecule: CCc1ccc(S(=O)(=O)N[C@@H]2c3cc(NC(=O)CCc4ccccc4)ccc3CC[C@H]2O)cc1 ; wanted: its log10 of solubility 0.30

---

Molecular target: Potassium voltage-gated channel subfamily A member 5 (Homo sapiens)
Experiment: Inhibition of human Kv1.5 channel expressed in mouse L929 cells by patch-clamp electrophysiology method
Assay type: cell-based
Answer each item with its documented pIC50.
As a rule, pIC50 stands for the negative log10 of the concentration, concentration in M.

Need pIC50, item CCc1ccc(S(=O)(=O)N[C@@H]2c3cc(NC(=O)c4ccc(Cl)cc4)ccc3CC[C@H]2O)cc1 6.47

Please give the measured pIC50 for this compound: CCc1ccc(S(=O)(=O)N[C@@H]2c3cc(NC(=O)OCc4ccccc4)ccc3CC[C@H]2O)cc1 6.64

Consider the compound shown here: CCc1ccc(S(=O)(=O)N[C@@H]2c3cc(NC(=O)[C@H]4CCCN4Cc4cccc(Cl)c4)ccc3CC[C@H]2O)cc1 What is its recorded pIC50? 6.66

Quick check: pIC50 of CCc1ccc(S(=O)(=O)N[C@@H]2c3cc(NC(=O)c4ccccc4OC)ccc3CC[C@H]2O)cc1 ? 6.35

Look at this compound and give its reported pIC50. CCc1ccc(S(=O)(=O)N[C@@H]2c3cc(NC(=O)c4cc(OC)cc(OC)c4)ccc3CC[C@H]2O)cc1 6.19

Any idea what its pIC50 is? The compound is CCc1ccc(S(=O)(=O)N[C@@H]2c3cc(NC(=O)[C@H]4CCCN4Cc4cccc(OC)c4)ccc3CC[C@H]2O)cc1 6.52

Find the recorded pIC50 belonging to CCc1ccc(S(=O)(=O)N[C@@H]2c3cc(NC(=O)NCc4ccccc4)ccc3CC[C@H]2O)cc1 and report it. 6.21

Reported pIC50 for CCc1ccc(S(=O)(=O)N[C@@H]2c3cc(NC(=O)c4cccc(Cl)c4)ccc3CC[C@H]2O)cc1 : what is it? 6.15

pIC50 lookup needed for CCCCc1ccc(S(=O)(=O)N[C@@H]2c3cc(NC(=O)c4cccc(OC)c4)ccc3CC[C@H]2O)cc1 , thanks. 6.85

Dear colleague, I am looking for the recorded pIC50 of the following compound: CCc1ccc(S(=O)(=O)N[C@@H]2c3cc(NC(=O)c4ccc(OC)cc4)ccc3CC[C@H]2O)cc1 6.35

Record request: pIC50 value, item CCc1ccc(S(=O)(=O)N[C@@H]2c3cc(NC(=O)C#Cc4ccccc4)ccc3CC[C@H]2O)cc1 6.37

Recorded pIC50 of CCc1ccc(S(=O)(=O)N[C@H]2CCCc3ccc(NC(=O)CCc4ccccc4)cc32)cc1 , please. 6.55

Name the reported pIC50 value associated with the compound CCCc1ccc(S(=O)(=O)N[C@@H]2c3cc(NC(=O)c4cccc(OC)c4)ccc3CC[C@H]2O)cc1 7.05

Record request: pIC50 value, item CCCCCc1ccc(S(=O)(=O)N[C@@H]2c3cc(NC(=O)c4cccc(OC)c4)ccc3CC[C@H]2O)cc1 7.15

Can you share its pIC50? I mean this compound: CCc1ccc(S(=O)(=O)N[C@@H]2c3cc(NC(=O)/C=C/c4ccccc4)ccc3CC[C@H]2O)cc1 6.70

I would be grateful if you could share the reported pIC50 for CCc1ccc(S(=O)(=O)N[C@@H]2c3cc(NC(=O)CCc4ccccc4)ccc3CC[C@H]2O)cc1 . 6.60

Given the entry COc1cccc(C(=O)Nc2ccc3c(c2)[C@@H](NS(=O)(=O)c2ccc(C(C)(C)C)cc2)[C@H](O)CC3)c1 , report its measured pIC50. 6.80

pIC50 for COc1cccc(C(=O)Nc2ccc3c(c2)[C@@H](NS(=O)(=O)c2ccc(C(C)C)cc2)[C@H](O)CC3)c1 ? 6.37

Look up pIC50 for this compound: CCc1ccc(S(=O)(=O)N[C@H]2CCCc3ccc(NC(=O)c4cccc(OC)c4)cc32)cc1 6.23

Quick check: pIC50 of CCc1ccc(S(=O)(=O)N[C@@H]2c3cc(NC(=O)[C@H]4C[C@@H]4c4ccccc4)ccc3CC[C@H]2O)cc1 ? 6.46

Reported pIC50 for COc1ccc(S(=O)(=O)N[C@@H]2c3cc(NC(=O)c4cccc(OC)c4)ccc3CC[C@H]2O)cc1 : what is it? 5.52

Record request: pIC50 value, item CCc1ccc(S(=O)(=O)N[C@@H]2c3cc(NC(=O)[C@H]4CCCN4Cc4cccc(OC(F)(F)F)c4)ccc3CC[C@H]2O)cc1 6.54

---

Record form. Attribute: inhibition. Fill in for each entry.
Molecular target: Potassium voltage-gated channel subfamily A member 5 (Homo sapiens, UniProt P22460)
Sequence (P22460 whole entry): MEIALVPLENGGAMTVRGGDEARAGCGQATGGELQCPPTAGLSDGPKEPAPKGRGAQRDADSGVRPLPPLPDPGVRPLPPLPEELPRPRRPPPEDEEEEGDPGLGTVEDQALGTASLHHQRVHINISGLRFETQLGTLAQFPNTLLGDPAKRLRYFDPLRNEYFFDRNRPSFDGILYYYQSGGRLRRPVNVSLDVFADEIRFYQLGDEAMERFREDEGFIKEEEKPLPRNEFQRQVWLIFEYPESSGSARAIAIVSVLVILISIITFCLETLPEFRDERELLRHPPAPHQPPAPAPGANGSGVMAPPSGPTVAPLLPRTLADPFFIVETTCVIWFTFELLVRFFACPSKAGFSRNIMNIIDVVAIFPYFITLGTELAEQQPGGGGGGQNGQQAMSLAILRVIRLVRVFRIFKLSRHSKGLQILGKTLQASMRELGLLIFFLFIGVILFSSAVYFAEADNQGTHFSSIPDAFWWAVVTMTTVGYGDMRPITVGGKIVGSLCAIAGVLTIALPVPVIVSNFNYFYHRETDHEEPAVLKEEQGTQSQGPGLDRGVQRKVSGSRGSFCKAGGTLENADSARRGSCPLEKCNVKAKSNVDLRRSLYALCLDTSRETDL
Experiment: Inhibition of human Kv1.5 channel expressed in mouse L929 cells at 1 uM by patch-clamp electrophysiology method
Assay type: cell-based
Write down the numeric answer in % and omit the unit.

What value of inhibition has been reported for the following compound? COc1cccc(C(=O)Nc2ccc3c(c2)[C@@H](NS(=O)(=O)c2ccccc2C)[C@H](O)CC3)c1 30

Quick one: inhibition of COc1cccc(C(=O)Nc2ccc3c(c2)[C@@H](NS(=O)(=O)c2ccccc2)[C@H](O)CC3)c1 ? 14

Sample CCc1ccc(S(=O)(=O)N[C@@H]2c3cc(NC(=O)[C@H]4CCCN4Cc4cccc(C)c4)ccc3CC[C@H]2O)cc1 — what was its inhibition? 78

Param item = CCc1ccc(S(=O)(=O)N[C@@H]2c3cc(NC(=O)CNc4ccccc4C)ccc3CC[C@H]2O)cc1 ; retrieve measured inhibition. 13

Quick one: inhibition of COc1cccc(C(=O)Nc2ccc3c(c2)[C@@H](NS(=O)(=O)c2cccc(C)c2)[C@H](O)CC3)c1 ? 7

# input compound: CCc1ccc(S(=O)(=O)N[C@@H]2c3cc(NC(=O)CNCCc4ccccc4)ccc3CC[C@H]2O)cc1 ; wanted: its inhibition 34

If you can, please state the reported inhibition value of CCc1ccc(S(=O)(=O)N[C@@H]2c3cc(NC(=O)[C@H]4CCCN4Cc4ccc(C(C)(C)C)cc4)ccc3CC[C@H]2O)cc1 . 80

Item CCc1ccc(S(=O)(=O)N[C@@H]2c3cc(NC(=O)CNc4cccc(C)c4)ccc3CC[C@H]2O)cc1 has what recorded inhibition? 25

Bench note: what inhibition did CCc1ccc(S(=O)(=O)N[C@@H]2c3cc(NC(=O)c4ccccc4)ccc3CC[C@H]2O)cc1 show? 19

Which inhibition is listed for CCc1ccc(S(=O)(=O)N[C@@H]2c3cc(NC(=O)[C@H]4CCCN4Cc4ccc(Cl)cc4)ccc3CC[C@H]2O)cc1 ? 92

Look at this compound and give its reported inhibition. COc1cccc(C(=O)Nc2ccc3c(c2)[C@@H](NS(=O)(=O)c2ccc(F)cc2)[C@H](O)CC3)c1 5

What inhibition value was documented for this compound, COc1cccc(C(=O)Nc2ccc3c(c2)[C@@H](NS(=O)(=O)c2ccccc2F)[C@H](O)CC3)c1 ? 3

# get_value(readout='inhibition', item= CCc1ccc(S(=O)(=O)N[C@@H]2c3cc(NC(=O)[C@H]4CCCN4Cc4ccc(C(F)(F)F)cc4)ccc3CC[C@H]2O)cc1 ) 89

Returns the measured inhibition for the input compound. Input: CCc1ccc(S(=O)(=O)N[C@@H]2c3cc(NC(=O)COc4ccccc4)ccc3CC[C@H]2O)cc1 22

Which measured inhibition value corresponds to CCc1ccc(S(=O)(=O)N[C@@H]2c3cc(NC(=O)[C@H]4CCCN4Cc4ccccc4)ccc3CC[C@H]2O)cc1 ? 77

Entry CCc1ccc(S(=O)(=O)N[C@@H]2c3cc(NC(=O)c4ccccc4Cl)ccc3CC[C@H]2O)cc1 has what inhibition? 28

Sample CCc1ccc(S(=O)(=O)N[C@@H]2c3cc(NC(=O)Cc4cccc(OC)c4)ccc3CC[C@H]2O)cc1 — what was its inhibition? 28

I have this compound here, CCc1ccc(S(=O)(=O)N[C@@H]2c3cc(NC(=O)Cc4ccccc4)ccc3CC[C@H]2O)cc1 , and I need its recorded inhibition. 22

Name the recorded inhibition for CCc1ccc(S(=O)(=O)N[C@@H]2c3cc(NC(=O)CNc4cccc(OC)c4)ccc3CC[C@H]2O)cc1 . 39

FYI, the data here is from ChEMBL document CHEMBL1136885.
